This listing pairs compounds with measured pIC50.
# Test system: CCRF-CEM
# testProtocol: In vitro inhibitory activity against replication of HIV type-1 virus in CEM cells
# Format: functional, cell-based
# assayConditions: Homo sapiens
Lab note — pIC50 values are minus log10 of concentrations in M.

These recorded examples may help you get a feel for the data.
Cn1nnnc1[S+]([O-])C[C@H](NS(C)(=O)=O)C(=O)N[C@@H](Cc1ccccc1)[C@H](O)Cc1ccccc1C(=O)NC(C)(C)C (stereo not given in full)
5.30
CC(=O)N[C@@H](CS(=O)(=O)c1ccc2ccccc2n1)C(=O)N[C@@H](Cc1ccccc1)[C@H](O)Cc1ccccc1C(=O)NC(C)(C)C
7.23
CC(C)(C)NC(=O)c1ccccc1C[C@@H](O)[C@H](Cc1ccccc1)NC(=O)C(CS(=O)(=O)c1ccc2ccccc2n1)NS(C)(=O)=O (stereo not given in full)
5.24

Measured pIC50, CC(C)(C)NC(=O)c1ccccc1C[C@@H](O)[C@H](Cc1ccccc1)NC(=O)[C@H](CSc1cccc2ccccc12)NS(C)(=O)=O : 6.49

Reported pIC50 for CC(C)(C)NC(=O)c1ccccc1C[C@@H](O)[C@H](Cc1ccccc1)NC(=O)[C@H](CS(=O)(=O)c1ccc(C(F)(F)F)cc1)NS(C)(=O)=O was 6.19

----------
# testProtocol: Maximum plasma concentration in rat upon oral administration of 40 mg/kg
# Type: ADME, organism-based
# Parameters: dose 40 mg/kg, route oral
assayReadout: Cmax

Example cases with answers are listed next.
COc1ccc(S(=O)(=O)C[C@H](NS(C)(=O)=O)C(=O)N[C@@H](Cc2ccccc2)[C@H](O)Cc2ccccc2C(=O)NC(C)(C)C)cc1
< 0.3 µg/mL
CC(C)(C)NC(=O)c1ccccc1C[C@@H](O)[C@H](Cc1ccccc1)NC(=O)[C@H](C[S+]([O-])c1cccc2ccccc12)NS(C)(=O)=O (stereo partly drawn)
< 0.25 µg/mL
CC(=O)N[C@@H](CS(=O)(=O)c1ccc2ccccc2c1)C(=O)N[C@@H](Cc1ccccc1)[C@H](O)Cc1ccccc1C(=O)NC(C)(C)C
< 0.1 µg/mL
CC(C)(C)NC(=O)c1ccccc1C[C@@H](O)[C@H](Cc1ccccc1)NC(=O)[C@H](CS(=O)(=O)c1ccc(Cl)cc1)NS(C)(=O)=O
< 0.3 µg/mL
Cn1nnnc1[S+]([O-])C[C@H](NS(C)(=O)=O)C(=O)N[C@@H](Cc1ccccc1)[C@H](O)Cc1ccccc1C(=O)NC(C)(C)C (stereo partly drawn)
0.49 µg/mL

// Cmax lookup, compound = CC(C)(C)NC(=O)c1ccccc1C[C@@H](O)[C@H](Cc1ccccc1)NC(=O)[C@H](CS(=O)(=O)c1ccc2ccccc2n1)NS(C)(=O)=O , result: < 0.1 µg/mL

# Cmax (compound: CC(C)(C)NC(=O)c1ccccc1C[C@@H](O)[C@H](Cc1ccccc1)NC(=O)[C@H](C[S+]([O-])c1ccc2ccccc2c1)NS(C)(=O)=O (stereo partly drawn) ) is 0.33 µg/mL

response.value for CC(C)(C)NC(=O)c1ccccc1C[C@@H](O)[C@H](Cc1ccccc1)NC(=O)[C@H](C[S+]([O-])c1ccc(C(F)(F)F)cc1)NS(C)(=O)=O (stereo partly drawn) (field: Cmax) = < 0.2 µg/mL

// CC(C)(C)NC(=O)c1ccccc1C[C@@H](O)[C@H](Cc1ccccc1)NC(=O)[C@H](C[S+]([O-])c1ccc(F)cc1)NS(C)(=O)=O (stereo partly drawn) : Cmax value = 2.2 µg/mL

For this compound ( CC(C)(C)NC(=O)c1ccccc1C[C@@H](O)[C@H](Cc1ccccc1)NC(=O)[C@H](CS(=O)(=O)c1ccc(C(F)(F)F)cc1)NS(C)(=O)=O ), measured Cmax is < 0.3 µg/mL

// sample CC(C)(C)NC(=O)c1ccccc1C[C@@H](O)[C@H](Cc1ccccc1)NC(=O)[C@H](C[S+]([O-])c1ccccn1)NS(C)(=O)=O (stereo partly drawn) , its Cmax was < 0.2 µg/mL

Kindly note the recorded Cmax for CC(C)(C)NC(=O)c1ccccc1C[C@@H](O)[C@H](Cc1ccccc1)NC(=O)[C@H](CS(=O)(=O)c1ccc(F)cc1)NS(C)(=O)=O , which is < 0.3 µg/mL

Summary for this compound, CC(C)(C)NC(=O)c1ccccc1C[C@@H](O)[C@H](Cc1ccccc1)NC(=O)[C@H](CS(=O)(=O)c1ccccc1)NS(C)(=O)=O : Cmax is < 0.3 µg/mL

----------
# measuredTarget: Human immunodeficiency virus type 1 protease (Human immunodeficiency virus 1)
# testProtocol: Inhibitory activity against HIV-1 protease
assayReadout: pIC50
pIC50 is defined as minus the log10 of a concentration measured in mol/L.

Look over these answered cases.
CC(C)(C)NC(=O)c1ccccc1C[C@@H](O)[C@H](Cc1ccccc1)NC(=O)C(CS(=O)(=O)c1ccc2ccccc2n1)NS(C)(=O)=O (stereo partly drawn)
8.55
CC(=O)N[C@@H](CS(=O)(=O)c1ccccc1)C(=O)N[C@@H](Cc1ccccc1)[C@H](O)Cc1ccccc1C(=O)NC(C)(C)C
7.70
Cn1nnnc1SC[C@H](NS(C)(=O)=O)C(=O)N[C@@H](Cc1ccccc1)[C@H](O)Cc1ccccc1C(=O)NC(C)(C)C
7.76
Cn1nnnc1[S+]([O-])C[C@H](NS(C)(=O)=O)C(=O)N[C@@H](Cc1ccccc1)[C@H](O)Cc1ccccc1C(=O)NC(C)(C)C (stereo partly drawn)
8.68
COc1ccc(S(=O)(=O)C[C@H](NS(C)(=O)=O)C(=O)N[C@@H](Cc2ccccc2)[C@H](O)Cc2ccccc2C(=O)NC(C)(C)C)cc1
8.62

Entry CC(C)(C)NC(=O)c1ccccc1C[C@@H](O)[C@H](Cc1ccccc1)NC(=O)[C@H](CS(=O)(=O)c1ccccn1)NS(C)(=O)=O ; pIC50 = 7.66

Given item CC(=O)N[C@@H](CS(=O)(=O)c1ccc2ccccc2c1)C(=O)N[C@@H](Cc1ccccc1)[C@H](O)Cc1ccccc1C(=O)NC(C)(C)C , the value recorded as its pIC50 is 9.49

Record CCCC(=O)N[C@@H](CC(=O)OCc1ccccc1)C(=O)N[C@@H](Cc1ccccc1)[C@H](O)Cc1ccccc1C(=O)NC(C)(C)C , field pIC50: 6.49

----------
# Test system: CCRF-CEM
# testProtocol: Antiviral activity against CEM cells
# Format: functional, cell-based
# assayConditions: Homo sapiens
Reported IC50 values for a set of compounds
Express your answer in nM, writing the number without its unit.

Guide cases for IC50, answers given:
CC(C)(C)NC(=O)c1ccccc1C[C@@H](O)[C@H](Cc1ccccc1)NC(=O)[C@H](CSc1ccc2ccccc2c1)NS(C)(=O)=O
530
CC(C)(C)NC(=O)c1ccccc1C[C@@H](O)[C@H](Cc1ccccc1)NC(=O)[C@H](C[S+]([O-])c1ccccc1)NS(C)(=O)=O (some centres undefined)
100
CC(C)(C)NC(=O)c1ccccc1C[C@@H](O)[C@H](Cc1ccccc1)NC(=O)[C@H](CSc1ccc(F)cc1)NS(C)(=O)=O
2130
CCCC(=O)N[C@@H](CC(=O)OCc1ccccc1)C(=O)N[C@@H](Cc1ccccc1)[C@H](O)Cc1ccccc1C(=O)NC(C)(C)C
8700
CC(=O)N[C@@H](CS(=O)(=O)c1ccccc1)C(=O)N[C@@H](Cc1ccccc1)[C@H](O)Cc1ccccc1C(=O)NC(C)(C)C
815

The reported IC50 of the compound CC(C)(C)NC(=O)c1ccccc1C[C@@H](O)[C@H](Cc1ccccc1)NC(=O)C(CS(=O)(=O)c1ccc2ccccc2n1)NS(C)(=O)=O (some centres undefined) was 2060

Reported IC50 ( CC(C)(C)NC(=O)c1ccccc1C[C@@H](O)[C@H](Cc1ccccc1)NC(=O)[C@H](CS(=O)(=O)c1ccc(C(F)(F)F)cc1)NS(C)(=O)=O ) = 204

Quick note, IC50 for Cn1nnnc1SC[C@H](NS(C)(=O)=O)C(=O)N[C@@H](Cc1ccccc1)[C@H](O)Cc1ccccc1C(=O)NC(C)(C)C landed at 6680

----------
compounds and their reported IC50
# System: CCRF-CEM
# testProtocol: In vitro inhibitory activity against replication of HIV type-1 virus in CEM cells
# Assay type: functional, cell-based
# assayConditions: Homo sapiens
Dear colleague, please return just the value in nM, with no unit written.

Guide cases for IC50, answers given:
CC(C)(C)NC(=O)c1ccccc1C[C@@H](O)[C@H](Cc1ccccc1)NC(=O)[C@H](CS(=O)(=O)c1cccc2ccccc12)NS(C)(=O)=O
49
CC(C)(C)NC(=O)c1ccccc1C[C@@H](O)[C@H](Cc1ccccc1)NC(=O)[C@H](CS(=O)(=O)c1ccc(F)cc1)NS(C)(=O)=O
32

Query compound follows.
Form: compound = CC(C)(C)NC(=O)c1ccccc1C[C@@H](O)[C@H](Cc1ccccc1)NC(=O)[C@H](C[S+]([O-])c1ccccn1)NS(C)(=O)=O (stereo partly drawn) ; IC50 = 474

----------
# Tested on: CCRF-CEM
# testProtocol: Antiviral activity against CEM cells
# Type: functional, cell-based
# assayConditions: Homo sapiens
Reported pIC50 values for a set of molecules
Lab note — pIC50 values are minus log10 of concentrations in M.

pIC50 in this record for CC(C)(C)NC(=O)c1ccccc1C[C@@H](O)[C@H](Cc1ccccc1)NC(=O)[C@H](C[S+]([O-])c1ccc(F)cc1)NS(C)(=O)=O (some centres undefined) : 6.78

Sample CC(C)(C)NC(=O)c1ccccc1C[C@@H](O)[C@H](Cc1ccccc1)NC(=O)[C@H](CSc1ccc2ccccc2n1)NS(C)(=O)=O ; pIC50 observed: 5.27

Note to self: pIC50 recorded for CC(C)(C)NC(=O)c1ccccc1C[C@@H](O)[C@H](Cc1ccccc1)NC(=O)[C@H](CS(=O)(=O)c1ccccc1)NS(C)(=O)=O was 7.14

Sample COc1ccc(SC[C@H](NS(C)(=O)=O)C(=O)N[C@@H](Cc2ccccc2)[C@H](O)Cc2ccccc2C(=O)NC(C)(C)C)cc1 ; pIC50 observed: 5.74

Recorded values, source ChEMBL document CHEMBL1129303.
